# Tested on: HeLa
# ASSAY_REMARKS: cells
# CONDITION_CONTEXT: Homo sapiens, 48 h
pIC50: −log10 of the molar value.
Each entry below carries its reported pIC50.
READOUT_KIND: pIC50

COMPOUND	RESULT
c1ccc2nc(-c3nc4ccccc4[nH]3)c(NCCCN3CCOCC3)nc2c1	< 4.00
CN(C)CCCNc1nc2ccccc2nc1-c1nc2c(ccc3ccccc32)o1	4.98
c1ccc2nc(-c3nc4ccccc4[nH]3)c(NCCN3CCOCC3)nc2c1	< 4.00
CC[C@@]1(O)C(=O)OCc2c1cc1n(c2=O)Cc2cc3ccccc3nc2-1 [CAMPTOTHECIN]	5.19
c1ccc2nc(-c3nc4ccccc4s3)c(NCCCN3CCOCC3)nc2c1	< 4.00
CCN(CC)CCCNc1nc2ccccc2nc1-c1nc2c(ccc3ccccc32)o1	4.96
c1ccc2nc(-c3nc4ccccc4o3)c(NCCCN3CCOCC3)nc2c1	< 4.00
c1ccc2nc(-c3nc4ccccc4o3)c(NCCN3CCOCC3)nc2c1	< 4.00
c1ccc2nc(-c3nc4ccccc4s3)c(NCCN3CCOCC3)nc2c1	< 4.00
